molecular target: T1, human C-MET His tagged, monomeric (human, UniProt P08581 25-932); assay: SPR Biacore, IgG captured, monomeric C-MET-His analyte
T1 construct: also called monomeric human C-MET; biotinylated human C-MET-His
T1 sequence (P08581 25-932): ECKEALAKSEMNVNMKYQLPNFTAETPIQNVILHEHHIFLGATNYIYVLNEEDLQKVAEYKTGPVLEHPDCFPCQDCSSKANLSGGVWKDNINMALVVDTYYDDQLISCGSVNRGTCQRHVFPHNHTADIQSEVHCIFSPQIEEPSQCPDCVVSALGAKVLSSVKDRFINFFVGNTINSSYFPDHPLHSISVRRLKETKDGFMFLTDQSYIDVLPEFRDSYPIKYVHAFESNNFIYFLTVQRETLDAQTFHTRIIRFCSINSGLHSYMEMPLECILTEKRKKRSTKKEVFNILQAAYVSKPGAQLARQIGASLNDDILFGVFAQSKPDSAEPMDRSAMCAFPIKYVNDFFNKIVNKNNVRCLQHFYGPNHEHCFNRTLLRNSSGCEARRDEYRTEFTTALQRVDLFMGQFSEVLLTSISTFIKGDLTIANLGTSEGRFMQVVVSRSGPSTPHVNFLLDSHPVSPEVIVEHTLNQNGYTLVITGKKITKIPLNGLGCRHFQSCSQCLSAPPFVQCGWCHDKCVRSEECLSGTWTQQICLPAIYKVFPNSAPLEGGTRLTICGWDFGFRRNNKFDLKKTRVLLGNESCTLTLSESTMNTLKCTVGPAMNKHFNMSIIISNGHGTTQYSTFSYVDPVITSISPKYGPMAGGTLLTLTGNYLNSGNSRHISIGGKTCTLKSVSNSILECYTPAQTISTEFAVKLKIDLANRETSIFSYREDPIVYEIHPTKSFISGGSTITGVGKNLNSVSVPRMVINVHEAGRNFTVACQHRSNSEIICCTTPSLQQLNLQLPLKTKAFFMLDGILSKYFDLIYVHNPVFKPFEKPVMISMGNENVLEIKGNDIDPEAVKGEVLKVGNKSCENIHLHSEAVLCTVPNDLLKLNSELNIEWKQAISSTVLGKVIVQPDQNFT
For each entry below, report its Kd value.
Write the numeric value and follow it with the unit.

**Q:** I am curious: what Kd value has been reported for MH7-2 (antibody, human IgG4, V domains shown) VH: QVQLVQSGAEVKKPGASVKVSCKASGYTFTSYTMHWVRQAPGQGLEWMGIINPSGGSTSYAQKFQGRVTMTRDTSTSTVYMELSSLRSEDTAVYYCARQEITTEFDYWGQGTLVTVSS VL: EIVLTQSPGTLSLSPGERATLSCRASQSVSSYANSYLHWYQQKPGQAPRLLIYRGSTRETGIPDRFSGSGSGTDFTLTISRLEPEDFAVYYCQQSKESPLTFGGGTKVEIK ?
**A:** 2.12 nM

**Q:** I am curious: what Kd value has been reported for MH1 (antibody, IgG4, V domains shown) VH: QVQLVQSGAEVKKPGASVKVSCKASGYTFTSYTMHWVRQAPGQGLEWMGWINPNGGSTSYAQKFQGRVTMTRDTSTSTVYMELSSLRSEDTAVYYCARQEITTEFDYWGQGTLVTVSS VL: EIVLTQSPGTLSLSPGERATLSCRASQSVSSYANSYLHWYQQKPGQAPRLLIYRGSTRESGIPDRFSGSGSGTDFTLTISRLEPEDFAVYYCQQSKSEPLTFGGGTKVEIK ?
**A:** 0.75 nM

**Q:** I am curious: what Kd value has been reported for MH12 (antibody, IgG4, V domains shown) VH: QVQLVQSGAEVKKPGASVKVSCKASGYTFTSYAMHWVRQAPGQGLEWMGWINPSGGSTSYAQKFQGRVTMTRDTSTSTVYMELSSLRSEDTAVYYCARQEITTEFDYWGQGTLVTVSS VL: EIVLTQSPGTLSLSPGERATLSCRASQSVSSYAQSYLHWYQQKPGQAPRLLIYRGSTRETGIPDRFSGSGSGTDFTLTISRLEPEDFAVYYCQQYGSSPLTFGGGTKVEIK ?
**A:** 6.5 nM
